# System: VPS34
# Construct: gene PIK3C3
# reported.conditions: concentration: 1 μM, replicates: in singlicate; n = 1;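 also: KINOMEscan kinase panel screen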
measured.quantity: %Inh
# number then unit; no other words

Below, 5 compounds whose answers are already recorded.
INSERT INTO results (compound, measured_on, measured_result) VALUES
  ('Fc1ccc(-c2ncn(C3CCNCC3)c2-c2ccnc(Oc3ccc(-c4ccccc4)cc3)n2)cc1 [SB-245391]', 'VPS34', '30%'),
  ('CNC(=O)c1ccccc1Nc1nc(Nc2ccc(N3CCOCC3)cc2)ncc1Cl.Cl [GSK1576028]', 'VPS34', '0%'),
  ('CC(=O)Nc1nc2cnc(Nc3cc(NC(=O)c4cccc(C5(C#N)CC5)c4Cl)ccc3C)nc2s1', 'VPS34', '22%'),
  ('Nc1ncc(-c2cccnc2)c2scc(-c3ccc4c(c3)CCN4C(=O)Cc3ccccc3)c12 [GSK683281]', 'VPS34', '29%'),
  ('Cl.Cl.NCC(NCc1ccc(-c2ccnc3[nH]ccc23)s1)c1ccccc1 (centres unmarked) [GSK1321565]', 'VPS34', '7%');

(Q) Item under review: CCn1c(-c2nonc2N)nc2c(C#CC(C)(C)O)nc(OC[C@H](N)c3ccccc3)cc21 [GSK943949] . Reported %Inh?
(A) 16%

(Q) Name the recorded %Inh for COc1ccc(Nc2nccc(N3CCC(NC(=O)Nc4cccc(OC)c4)C3)n2)cc1 (centres unmarked) [GSK1379742] .
(A) 16%

(Q) Any idea what its %Inh is? The compound is CN(C)Cc1ccc(-c2ccc3c(Nc4ccc(Oc5ccccn5)cc4)ccnc3c2)o1 [GW567148]
(A) 0%

* * *

# System: MST1R
# reported.conditions: concentration: 1 μM, replicates: in singlicate; n = 1
measured.quantity: %Inh (%)
Reply numerically in %, unit not repeated.

Here is how some molecules turned out for %Inh.
INSERT INTO results (molecule, measured_result) VALUES
  ('Nc1ncnc2c1nc(-c1ccccc1)n2-c1ccccc1 [SKF-97293]', 18),
  ('Cl.Cl.NCC(NC(=O)c1cc(-c2ccccc2)c(-c2ccnc3[nH]ccc23)s1)c1ccccc1 (centres unmarked) [GSK1321561]', 42),
  ('CCS(=O)(=O)c1ccc(OC)c(Nc2nccc(-c3c(-c4cccc(NC(=O)c5c(F)cccc5F)c4)nn4ncccc34)n2)c1 [GSK326180]', 0),
  ('COc1cc(Nc2nccc(N3CCC(NC(=O)c4cc5ccccc5s4)C3)n2)cc(OC)c1OC (centres unmarked) [GSK1379760]', 39),
  ('O=C(Nc1cccc(-c2nn3ccccc3c2-c2ccnc(Nc3cccc(C(F)(F)F)c3)n2)c1)c1c(F)cccc1F [GSK292658]', 0);

(Q) %Inh for CSc1cccc2c(-c3ccncn3)c(-c3ccc(F)cc3)nn12 [GW514786] ?
(A) 18

(Q) // query %Inh value for entry O=C(Nc1n[nH]c2nc(-c3ccc(O)cc3)ccc12)C1CC1 [SB-710363]
(A) 0

(Q) Requested read-out: %Inh. Entry: Cl.Cl.NCC(NCc1ccc(-c2ccnc3[nH]ccc23)s1)c1ccccc1 (centres unmarked) [GSK1321565]
(A) 12

* * *

# Tested on: ABL1-nonphosphorylated
# reported.conditions: concentration: 1 μM, replicates: in singlicate; n = 1
measured.quantity: %Inh (%)
State just the number; it will be interpreted in %.

// worked examples, %Inh included
INSERT INTO results (compound, measured_on, measured_quantity, measured_result) VALUES
  ('Cl.NC(=O)c1cccc(Nc2nccc(Nc3ccc(Oc4c(Cl)cccc4Cl)c(Cl)c3)n2)c1 [GW659009]', 'ABL1-nonphosphorylated', '%Inh', 67),
  ('COc1ccc(CNC(=O)NC2CCN(c3ccnc(Nc4ccc(F)cc4)n3)CC2)cc1 [GSK1379788]', 'ABL1-nonphosphorylated', '%Inh', 0),
  ('C[C@@H](Oc1cc(-n2cnc3cc(-c4ccnc(NCCS(C)(=O)=O)c4)ccc32)sc1C(N)=O)c1ccccc1Cl [GSK907232]', 'ABL1-nonphosphorylated', '%Inh', 0);

Could you now look at the following compound, please?
(Q) Requested read-out: %Inh. Entry: O=c1[nH]cc(-c2ccc(N3CCOCC3)cc2)c2sc(-c3cn[nH]c3)cc12 [GSK2276055]
(A) 0

* * *

# Tested on: WEE1
# reported.conditions: concentration: 1 μM, replicates: in singlicate; n = 1
Cut-off 10% on %Inh, inclusive. At or above means True; below means False.

Past entries and their recorded results:
INSERT INTO results (compound, cat) VALUES
  ('COc1cccc(-c2ccc3c(NC(=O)C4CC4)n[nH]c3n2)c1 [SB-710903]', 'True'),
  ('O=C(Nc1ccccc1F)NC1CCN(c2ccnc(Nc3ccc(F)cc3)n2)CC1 [GSK1379800]', 'True'),
  ('CN1CCN(Cc2cccc(-c3ccc4c(Nc5ccc(Oc6ccccc6)cc5)ccnc4c3)c2)CC1 [GW578342]', 'False'),
  ('COc1ccc(Nc2nccc(N3CCC(NC(=O)Nc4cccc(OC)c4)C3)n2)cc1 (centres unmarked) [GSK1379742]', 'True'),
  ('COc1ccc(-c2coc3ccc(-c4nnc(SCc5ccc(OC)c(C(F)(F)F)c5)o4)cc23)cc1', 'False'),
  ('C[C@@H]1CC[C@@H](C(=O)Nc2ccccc2)CN1c1cc(-c2ccc3c(N)n[nH]c3c2)nc(N)n1 [GSK2286062]', 'False');

Next, consider the following compound.
(Q) # check: %Inh of CCS(=O)(=O)c1ccc(OC)c(Nc2nccc(-c3c(-c4cccc(NC(=O)c5c(F)cccc5F)c4)nn4ncccc34)n2)c1 [GSK326180] is greater than or equal to 10%
(A) True

* * *

# System: AMPK-alpha1
# Construct: gene PRKAA1
# reported.conditions: concentration: 1 μM, replicates: in singlicate; n = 1
Entries and their %Inh values follow.
Answer format reminder: number followed by unit.

Example cases with answers are listed next.
INSERT INTO results (compound, measured_result) VALUES
  ('Cc1cccc(Nc2nc(N[C@H]3CCNC3)ncc2C(N)=O)c1.Cl', '22%'),
  ('Clc1ccc(-c2nn3ncccc3c2-c2ccnc(Nc3ccc4c(c3)OCCO4)n2)cc1', '0%');

(Q) Which measured %Inh value corresponds to "COCCOCCOc1cc2ncc3c4ccc(C#N)cc4[nH]c3c2cc1OC" ?
(A) 30%

(Q) For COc1cc(Nc2nccc(N3CCC(NC(=O)c4cc5ccccc5s4)C3)n2)cc(OC)c1OC (stereo not drawn) , what is its reported %Inh?
(A) 45%

(Q) Suppose we examine the compound "c1ccc(-c2cnc3nccnn23)cc1" ; what %Inh value has been reported?
(A) 0%

(Q) What does the data say about its %Inh? Entry: "CCn1c(-c2nonc2N)nc2c(C#CC(C)(C)O)nc(OC[C@H](N)c3ccccc3)cc21"
(A) 0%

(Q) Entry Cl.Cl.NCC(NCc1ccc(-c2ccnc3[nH]ccc23)s1)c1ccccc1 (stereo not drawn) has what %Inh?
(A) 45%

(Q) Recorded %Inh of "CC(=O)Nc1nc2cnc(Nc3cc(NC(=O)c4cccc(C5(C#N)CC5)c4Cl)ccc3C)nc2s1" , please.
(A) 7%

(Q) What measured %Inh goes with "CCn1c(-c2nonc2N)nc2c(C#CC(C)(C)O)ncc(OCCCCN)c21.O=C(O)C(F)(F)F.O=C(O)C(F)(F)F" ?
(A) 1%

* * *

# System: PIKFYVE
# reported.conditions: concentration: 1 μM, replicates: in singlicate; n = 1
measured.quantity: %Inh (%)
Numeric answer only, unit % assumed.

Solved cases (7 shown):
INSERT INTO assay_data (test_smiles, measured_result) VALUES
  ('CCc1ccc(-c2ccc3c(c2)-c2c(cnn2C)S(=O)(=O)N3C)cc1', 53),
  ('Oc1cc(Nc2ccnc3cc(I)ccc23)ccc1F', 13),
  ('O=C(O)C(F)(F)F.O=C(O)C(F)(F)F.O=c1[nH]ccc2nc(N[C@@H]3CCCNC3)nc(Nc3ccc(S(=O)(=O)N4CCOCC4)cc3)c12', 69),
  ('FC(F)(F)c1ccc(/C=C/c2cncnc2Nc2ccc3[nH]c(Cc4ccccc4)nc3c2)cc1', 8),
  ('Nc1ncc(-c2cccnc2)c2scc(-c3ccc4c(c3)CCN4C(=O)Cc3ccccc3)c12', 0),
  ('COc1ccc(Nc2nccc(NCCNC(=O)c3cc4ccccc4s3)n2)cc1', 0),
  ('O=C(Nc1ccccc1F)NC1CCN(c2ccnc(Nc3ccc(F)cc3)n2)CC1', 0);

(Q) Can you look up the measured %Inh of "CCCCc1nn2ncccc2c1-c1ccnc(Nc2ccc(N3CCN(C)CC3)cc2)n1" for me?
(A) 51

* * *

# System: RIPK5
# reported.conditions: concentration: 1 μM, replicates: in singlicate; n = 1
The entries below come with measured %Inh values attached.
// return numeric value only (unit: %, not printed)

Worked examples, 3 compounds total:
INSERT INTO measurements (compound, measured_on, measured_quantity, unit_symbol, measured_result) VALUES
  ('CNC(=O)c1ccccc1Nc1nc(Nc2ccc(N3CCOCC3)cc2)ncc1Cl.Cl', 'RIPK5', '%Inh', '%', 80),
  ('COc1cc(Nc2nccc(-c3c(-c4cccc(NC(=O)c5c(F)cccc5F)c4)nn4ncccc34)n2)cc(OC)c1OC', 'RIPK5', '%Inh', '%', 0),
  ('CN(c1ccc(NC(=O)Nc2cc(C(F)(F)F)ccc2F)cc1)c1ccnc(Nc2ccc(S(N)(=O)=O)cc2)n1', 'RIPK5', '%Inh', '%', 47);

(Q) # value lookup — system RIPK5, readout %Inh, item "O=C(Nc1ccccc1F)NC1CCN(c2ccnc(Nc3ccc(F)cc3)n2)CC1"
(A) 0

(Q) Give the reported %Inh for "Cc1ccc(C(=O)Nc2ccc(Nc3ccnc4cc(-c5nccs5)ccc34)cc2O)cc1.Cl" (system: RIPK5).
(A) 0
